- target_under_test: Sphingosine 1-phosphate receptor 4 (Homo sapiens) (UniProt O95977)
- Sequence (O95977 whole entry, looked up): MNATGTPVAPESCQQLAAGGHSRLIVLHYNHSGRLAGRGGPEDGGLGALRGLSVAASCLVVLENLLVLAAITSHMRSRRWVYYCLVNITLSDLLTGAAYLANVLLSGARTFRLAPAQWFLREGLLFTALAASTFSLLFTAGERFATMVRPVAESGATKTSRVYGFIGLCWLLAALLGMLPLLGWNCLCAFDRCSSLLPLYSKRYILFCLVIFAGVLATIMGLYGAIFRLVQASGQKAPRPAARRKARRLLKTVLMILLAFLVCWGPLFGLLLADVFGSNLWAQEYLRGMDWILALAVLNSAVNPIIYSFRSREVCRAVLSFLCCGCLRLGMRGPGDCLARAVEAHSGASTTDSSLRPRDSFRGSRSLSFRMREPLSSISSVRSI
- assay_notes: activators of human S1P4 receptor – cell-based, primary screen (AID 1509);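 also: 0% = DMSO vehicle and 100% = reference agonist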
- test_settings: S1P4-expressing cell line, agonist reporter assay; at 4.98 µM
The whole screen tested about 220,000 compounds, of which about 770 (0.35%) were called active. Rule as the data show it: active = activation above about 11%; inactive = the rest. For the sample, actives were picked, then their nearest neighbours and some compounds at random.
Classes used: active, inactive

> print(dat)
                                   molecule     class
1  COc1ccccc1CNC(=O)CNC(=O)c1cn(-c2ccccc2OC)c(=O)c2ccccc12    active
2         Cc1ccsc1/C=N/n1c(=S)[nH]nc(C)c1=O  inactive
3                  CCCCc1ccc(S(N)(=O)=O)cc1  inactive
4  CCOc1cc(N2CCOCC2)c(OCC)cc1NC(=O)C1=NN(c2cccc(C)c2)C(=O)CC1  inactive
5  O=C(Nc1ccc(NC(=O)c2ccco2)c(Cl)c1)c1cccc([N+](=O)[O-])c1  inactive
6  CCC1=NN2C(=N)/C(=C/c3cc(C)n(-c4ccccc4)c3C)C(=O)N=C2S1  inactive
7  COc1ccc(-c2ccc(CCC(=O)O)n2NC(=O)c2ccc(C(C)(C)C)cc2)cc1  inactive
8         Cc1cc2c(C)nc(N/N=C/c3ccccc3)nc2o1  inactive
9  Cc1c(C(=O)Nc2cccc(-c3nnc4n3CCCCC4)c2)oc2ccccc12  inactive

====

- target_under_test: Sphingosine 1-phosphate receptor 4 (Homo sapiens)
- assay_notes: activators of human S1P4 receptor – cell-based, primary screen (AID 1509);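 also: 0% = DMSO vehicle and 100% = reference agonist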
- test_settings: S1P4-expressing cell line, agonist reporter assay; at 4.98 µM; active compounds read high
Out of some 220,000 compounds screened, about 770 (0.35%) were called active. The sample as a whole holds a higher share of actives than the screen did.
quantity: activation (%)

> print(dat)
                                    compound    quantity  value.reported
 1  CCCC(c1nnnn1C(C)(C)C)N1CCN(Cc2ccccc2)CC1 (stereo unspecified)  activation            0.72
 2  COc1ccc(CCNC(=O)C(Sc2ccccn2)c2ccccc2)cc1OC (stereo unspecified)  activation           -2.85
 3  CN(Cc1ccccc1)C(=O)COC(=O)c1ccccc1Nc1ccccc1  activation           -0.61
 4            Cc1cc(C)cc(NC(=O)CSc2ccccc2)c1  activation           -1.04
 5           COc1ccc(/C=C2\N=C3CCCN3C2=O)cc1  activation            0.59
 6  COc1ccccc1C(c1nnnn1C(C)(C)C)N1CCN(Cc2ccccc2)CC1 (stereo unspecified)  activation           -1.97
 7  CC(C)(C)C(=O)NCCCNc1ccc([N+](=O)[O-])cc1  activation            0.65
 8  CC(C)C(c1nnnn1C(C)(C)C)N1CCN(Cc2cccnc2)CC1 (stereo unspecified)  activation            12.3
 9     O=C(CSc1ccccc1)Nc1cc(Cl)ccc1Oc1ccccc1  activation            0.59
10         O=C(COC(=O)c1ccco1)NCc1ccc(Cl)cc1  activation            0.62
11  O=C(O)CCn1cc(/C=C/C(=O)c2ccc(Cl)cc2)c(-c2cccc(Br)c2)n1  activation             0.7

====

- target_under_test: Sphingosine 1-phosphate receptor 4 (Homo sapiens) (UniProt O95977)
- assay_notes: activators of human S1P4 receptor – cell-based, primary screen (AID 1509);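 also: 0% = DMSO vehicle and 100% = reference agonist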
- test_settings: S1P4-expressing cell line, agonist reporter assay; at 4.98 µM; active compounds read high
Screen size: about 220,000 compounds; about 770 (0.35%) were called active. Only a selection was taken, and actives are over-represented in it overall.
quantity: activation (%)

> print(dat)
                                    molecule                         target.under.test    quantity  value.reported
 1  COC(=O)[C@@H]1CC[C@H](C)[C@@H](c2ccc(C)cc2)N1C(=O)c1ccc(/C=N/O[C@H](C)c2cn([C@@H]3COC[C@H]3O)nn2)cc1  Sphingosine 1-phosphate receptor 4 (Homo sapiens) (UniProt O95977)  activation            44.7
 2  Cc1ccc(N/C(N)=N/c2nc(C(F)(F)F)cc(C(F)(F)F)n2)cc1  Sphingosine 1-phosphate receptor 4 (Homo sapiens) (UniProt O95977)  activation            2.06
 3       Cc1cc2c(cc1C)N(Cc1ccccc1)C1=NCCCN12  Sphingosine 1-phosphate receptor 4 (Homo sapiens) (UniProt O95977)  activation           -0.25
 4   O=C(O)/C=C/c1ccc(S(=O)(=O)N2CCCCCC2)cc1  Sphingosine 1-phosphate receptor 4 (Homo sapiens) (UniProt O95977)  activation            1.37
 5  Cc1nn(-c2ccccc2)c(Cl)c1/C=C/C(=O)c1ccc(O)cc1  Sphingosine 1-phosphate receptor 4 (Homo sapiens) (UniProt O95977)  activation            4.66
 6  CCOc1ccc(N2CC(C(=O)N/N=C/c3sccc3C)CC2=O)cc1 (configuration not stated)  Sphingosine 1-phosphate receptor 4 (Homo sapiens) (UniProt O95977)  activation           -0.25
 7                    c1ccc2c(c1)OCCOCCOCCO2  Sphingosine 1-phosphate receptor 4 (Homo sapiens) (UniProt O95977)  activation            0.22
 8  O=C(O)C1C2CC2CN1C(=O)c1ccc(Cl)cc1Cl (configuration not stated)  Sphingosine 1-phosphate receptor 4 (Homo sapiens) (UniProt O95977)  activation            0.08
 9         CCCCOc1ccc(-c2nnc(-c3ccco3)o2)cc1  Sphingosine 1-phosphate receptor 4 (Homo sapiens) (UniProt O95977)  activation            0.55
10  CC(=O)c1ccc(S(=O)(=O)N2CCN(C(=O)/C=C/c3ccc4ccccc4n3)CC2)cc1  Sphingosine 1-phosphate receptor 4 (Homo sapiens) (UniProt O95977)  activation           -0.28
11  CNS(=O)(=O)c1ccc(NC(=O)C2CC(=O)N(c3ccc(Cl)cc3)C2)cc1 (configuration not stated)  Sphingosine 1-phosphate receptor 4 (Homo sapiens) (UniProt O95977)  activation           -4.58
12             CSc1nc2nc3c(c(=O)n2[nH]1)CCC3  Sphingosine 1-phosphate receptor 4 (Homo sapiens) (UniProt O95977)  activation           -0.27
13       Cc1cc(C)nc(N(C#N)CC(=O)Nc2ccccc2)n1  Sphingosine 1-phosphate receptor 4 (Homo sapiens) (UniProt O95977)  activation            14.7
14  CCOC(=O)/C(C#N)=C/c1ccc(OCC(=O)Nc2ccccc2)c(OC)c1  Sphingosine 1-phosphate receptor 4 (Homo sapiens) (UniProt O95977)  activation           -0.12
15  COc1ccc(N2C(=O)C(Cc3ccccc3)NC2=S)cc1 (configuration not stated)  Sphingosine 1-phosphate receptor 4 (Homo sapiens) (UniProt O95977)  activation            18.3
16  CC(C)(C)C1CCC(C(=O)Nc2cccnc2)CC1 (configuration not stated)  Sphingosine 1-phosphate receptor 4 (Homo sapiens) (UniProt O95977)  activation            -0.6
17  Cc1ccc(N2C(=O)C(Cc3ccccc3)NC2=S)cc1 (configuration not stated)  Sphingosine 1-phosphate receptor 4 (Homo sapiens) (UniProt O95977)  activation            -4.7
18  Cc1ccc(/C([O-])=C(/C(=S)NCc2ccco2)[n+]2ccccc2)cc1[N+](=O)[O-]  Sphingosine 1-phosphate receptor 4 (Homo sapiens) (UniProt O95977)  activation            0.47
19      COc1ccc(NC(=O)CSc2ncnc3[nH]ncc23)cc1  Sphingosine 1-phosphate receptor 4 (Homo sapiens) (UniProt O95977)  activation           -1.23
20  CC(=O)c1c(N2CCN(c3ccc(F)cc3)CC2)nc(=S)n(-c2ccccc2)c1C  Sphingosine 1-phosphate receptor 4 (Homo sapiens) (UniProt O95977)  activation            0.51
21  CCc1ccc(Nc2nnc(SCC(=O)c3ccc4c(c3)NC(=O)CO4)s2)cc1  Sphingosine 1-phosphate receptor 4 (Homo sapiens) (UniProt O95977)  activation             1.5
22           Cc1ccc(CC(=O)Nc2cccc(C#N)c2)cc1  Sphingosine 1-phosphate receptor 4 (Homo sapiens) (UniProt O95977)  activation            1.55

====

- target_under_test: Sphingosine 1-phosphate receptor 4 (Homo sapiens)
- assay_notes: activators of human S1P4 receptor – cell-based, primary screen (AID 1509);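 also: 0% = DMSO vehicle and 100% = reference agonist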
- test_settings: S1P4-expressing cell line, agonist reporter assay; at 4.98 µM
Among all 220,000 compounds or so, about 770 (0.35%) were called active. Rule as the data show it: active = activation above about 11%; inactive = the rest. Many of the other results were omitted from the sample, so actives are more common in it than they were. Where a SMILES comes first, the peptide text is derived from it. [ ]: non-standard residue; d: D form. ξ: configuration not given here. ξM = CSCCC(N)C(=O)O
Classes used: TRUE = active, FALSE = inactive

> print(dat)
                                    compound  class
 1  O=C(CN1CCN(S(=O)(=O)c2ccc(Cl)s2)CC1)NCc1ccc(Cl)cc1  FALSE
 2  O=C(COC(=O)c1ccccc1SCC(=O)NC1CCCCC1)NC1CCCCC1  FALSE
 3  O=C1COc2ccc(C(=O)COC(=O)C3CC(O)CN3S(=O)(=O)c3ccc(Cl)cc3)cc2N1 (stereo not given)  FALSE
 4  CCOC(=O)/C=c1\s/c(=C\c2ccc(C#N)cc2)c(=O)n1CC(=O)Nc1cccc(C)c1C  FALSE
 5        CCOc1cnc(-c2c(-c3ccccc3Cl)noc2C)o1  FALSE
 6  CCc1ccc(NC(=O)N[C@H](C(=O)O)C(C)CC)cc1 (stereo not given in full)  FALSE
 7  Cc1nc(-c2nnc(SCC(=O)Nc3cc(C(F)(F)F)cc(C(F)(F)F)c3)n2C)cs1  FALSE
 8  Cc1ccc(S(=O)(=O)NC(=O)Nc2nc(-c3ccc(F)c(F)c3)cs2)cc1  FALSE
 9                CCn1c(N)c(Br)c(=O)[nH]c1=O  FALSE
10       CCC(C)(C)NC(=O)C1c2ccccc2Oc2ccccc21  FALSE
11        Cn1nnnc1SCC(=O)NNC(=O)c1ccc(Br)cc1  FALSE
12  Cc1cc(NC(=O)c2cc(-c3cccs3)on2)nn1Cc1ccc(Cl)cc1   TRUE
13  Cc1ccc(Cn2ccc(NC(=O)c3cc(C(C)C)on3)n2)cc1  FALSE
14              O=S(=O)(NCCc1ccncc1)c1ccccc1  FALSE
15      O=C(CSc1nnc(Nc2ccccc2)s1)Nc1cccnc1Cl   TRUE
16     Cc1cc(NC(=O)CSc2nnc(Nc3ccccc3F)s2)no1  FALSE
17        O=c1c2ccccc2nnn1CSc1nnnn1-c1ccccc1  FALSE
18     COC(=O)[C@H](CCSC)NC(=O)Nc1ccc(OC)cc1  FALSE
19  CC(C)(C)c1ccc(/C=C2\Oc3c(ccc(O)c3CN3CCN(CCO)CC3)C2=O)cc1  FALSE
20  CC1CCCC(NC(=O)COC(=O)[C@@H]2CC(O)CN2S(=O)(=O)c2ccc3c(c2)OCCO3)C1C (stereo not given in full)   TRUE
21  COc1ccc(NC(=O)C(=O)NCC(=O)Nc2cccc(C(F)(F)F)c2)cc1  FALSE
22  O=C(CSc1nnc(C2CC2)n1Cc1ccccc1)Nc1cccnc1Cl  FALSE
23              CCn1nnnc1SCC(=O)c1ccc(C)cc1C  FALSE
24            O=C(c1cc(-c2cccs2)on1)N1CCCCC1  FALSE
25                       Fc1ccc(Nc2nnns2)cc1  FALSE
26      CCn1c(Cc2ccccc2)nnc1SCC(=O)Nc1ccccc1  FALSE
27  Cc1ccc(NC(=O)CC2C(=O)N(Cc3ccccc3)C(=S)N2NC(=O)c2cccc(F)c2)c(C)c1 (stereo not given)  FALSE
28  O=C(COC(=O)C1CCN(S(=O)(=O)c2ccc3c(c2)OCCO3)CC1)Nc1ccccc1OC(F)F  FALSE
29           C=CCOc1c(CNn2cn[nH]c2=S)cccc1OC  FALSE
30  CC(C)c1ccc(NC(=S)NC2CC3C=CC2C3)cc1 (stereo not given)  FALSE
31  CCn1c(CNC(=O)c2ccco2)nnc1SCC(=O)Nc1cccc(F)c1  FALSE
32  COC(=O)CNC(=O)C(CCSC)NC(C)=O (stereo not given) (Ac-[ξM]-Gly-OMe)   TRUE
33  N/C(=N\OC(=O)c1ccc2c(c1)OCO2)c1ccc(Br)cc1  FALSE
34  O=C(COC(=O)c1cc([N+](=O)[O-])ccc1NCc1ccccc1)NC1CCCCC1   TRUE
35          COc1ccc(CN2CN(C3CCCC3)CSC2=S)cc1  FALSE
36  CCOC(=O)CC(NC(=O)C1c2ccccc2Oc2ccccc21)c1ccc(C)cc1 (stereo not given)  FALSE
37  COc1cccc(CN(C)CC(=O)Nc2ccccc2C(=O)Nc2ccccc2)c1  FALSE
38  COc1cccc2c1CCC(NC(C)=O)C2=O (stereo not given)  FALSE
39     FC(F)(F)c1ccnc(Oc2ccc(C3=NCCS3)cc2)c1  FALSE
40  CN(C)c1nc(-c2cccnc2)nc(-c2ccc(Cl)cc2)c1C#N  FALSE
41  COCCNC(=O)c1ccc(-n2c(SCc3cccnc3)nc3ccccc3c2=O)cc1  FALSE
42  O=[N+]([O-])c1ccc(F)cc1Oc1nc(-c2cccnc2)nc2ccccc12  FALSE
43  CC1CCCN(CC(O)COc2ccc3c(c2)OCO3)C1 (stereo not given)  FALSE
44  CCn1c(CNC(=O)c2ccc(OC)c(OC)c2)nnc1SCC(=O)Nc1ccccc1   TRUE
45  CCC(C)NC(=O)N[C@@H](CCSC)C(=O)O (stereo not given in full)  FALSE
